Target: T1, human MSLN-R3 protein (human, UniProt Q13421 487-598)
T1 construct: also called hMSLN-R3
T1 sequence (Q13421 495-606, form in doubt): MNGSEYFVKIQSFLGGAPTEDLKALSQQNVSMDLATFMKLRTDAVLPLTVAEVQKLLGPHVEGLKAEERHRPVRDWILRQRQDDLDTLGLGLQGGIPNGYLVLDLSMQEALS
Test: ELISA on coated antigen, antibody 1 nM
Would you mind labelling by OD450? At or over 0.5 OD450 is rule met, under is rule not met.

Before answering, review these 3 worked examples.
{"binder": "F7.44.20-H12 (scFv, not shown: small tags and cut ends, also called S009-F7.44.20 humanized antibody VH2 + VL4) scFv: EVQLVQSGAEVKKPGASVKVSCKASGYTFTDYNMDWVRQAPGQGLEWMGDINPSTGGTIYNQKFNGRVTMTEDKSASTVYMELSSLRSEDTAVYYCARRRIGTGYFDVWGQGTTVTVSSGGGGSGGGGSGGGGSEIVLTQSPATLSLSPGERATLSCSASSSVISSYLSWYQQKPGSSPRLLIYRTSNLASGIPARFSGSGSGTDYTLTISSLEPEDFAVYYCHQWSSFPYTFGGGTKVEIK", "label class": "rule met"}
{"binder": "F7.44.20-VL-VH (scFv, not shown: small tags and cut ends, also called S009-F7.44.20 parental variable regions, VL-VH order) scFv: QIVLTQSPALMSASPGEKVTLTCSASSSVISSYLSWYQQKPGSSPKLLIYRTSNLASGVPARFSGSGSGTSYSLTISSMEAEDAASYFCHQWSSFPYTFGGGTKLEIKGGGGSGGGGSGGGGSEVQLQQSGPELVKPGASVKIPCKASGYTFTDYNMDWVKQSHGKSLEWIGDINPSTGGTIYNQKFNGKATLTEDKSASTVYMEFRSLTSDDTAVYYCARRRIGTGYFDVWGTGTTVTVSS", "label class": "rule met"}
{"binder": "Tab110 (scFv, not shown: small tags and cut ends, also called YP218 VH-(G4S)3-VL-his antibody; positive control) scFv: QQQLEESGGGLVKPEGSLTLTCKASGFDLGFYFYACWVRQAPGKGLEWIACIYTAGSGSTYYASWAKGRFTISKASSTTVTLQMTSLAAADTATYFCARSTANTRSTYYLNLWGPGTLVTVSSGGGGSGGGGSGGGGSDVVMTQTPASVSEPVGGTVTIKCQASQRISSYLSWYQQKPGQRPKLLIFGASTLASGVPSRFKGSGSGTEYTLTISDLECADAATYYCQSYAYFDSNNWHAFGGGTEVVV", "label class": "rule not met"}

Okay, now this binder:
Query :: Dear colleague, could you confirm whether F7.44.20-H1 (scFv, not shown: small tags and cut ends, also called S009-F7.44.20 humanized antibody VH1 + VL1) scFv: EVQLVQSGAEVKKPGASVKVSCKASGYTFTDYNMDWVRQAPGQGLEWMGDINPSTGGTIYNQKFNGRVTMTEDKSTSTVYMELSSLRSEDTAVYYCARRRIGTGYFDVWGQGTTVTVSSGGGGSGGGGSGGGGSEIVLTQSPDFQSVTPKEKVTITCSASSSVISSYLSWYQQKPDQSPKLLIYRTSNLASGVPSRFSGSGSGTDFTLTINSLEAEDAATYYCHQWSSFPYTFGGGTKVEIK has OD450 at or above 0.5 OD450?
Result :: rule met
